- target: L. monocytogenes AgrC (Listeria monocytogenes (EGD-e))
- test_protocol: cell-based or functional assay
Bridges are numbered along the chain shown (N, C = ends). Where no end group is shown, it is not given here.
Quick reference for Max Activation (agr-GFP reporter, ΔagrD strain) among some binders
Report as a plain number; the unit % is understood.

Here's what some known entries look like.
{"binder": "YSTCDFIM (not fully specified; thiolactone ring Cys4-Met8 (Cys side chain to C-terminal carboxyl)) [Sa AIP-I]", "numeric_value": 12.2}
{"binder": "INCAFLL (bridge 3-C; also: thiolactone: Cys3 side chain to C-terminal carboxyl) [Sa AIP-III D4A]", "numeric_value": 12.3}
{"binder": "ASACAAYF (not fully specified; thiolactone ring Cys4-Phe8 (Cys side chain to C-terminal carboxyl)) [Se AIP-I D1AV3AS6A]", "numeric_value": 12.1}
{"binder": "DSVCASYF (not fully specified; thiolactone ring Cys4-Phe8 (Cys side chain to C-terminal carboxyl)) [Se AIP-I]", "numeric_value": 8.65}
{"binder": "YSTCYFIM (not fully specified; thiolactone ring Cys4-Met8 (Cys side chain to C-terminal carboxyl)) [Sa AIP-IV]", "numeric_value": 9.81}

Q. So what does the record say about Max Activation (agr-GFP reporter, ΔagrD strain) for INCDFLL (bridge 3-C; also: thiolactone: Cys3 side chain to C-terminal carboxyl) [Sa AIP-III] ?
A. 11.3

Q. Report Max Activation (agr-GFP reporter, ΔagrD strain) for NASKYNPCSNYL (not fully specified; thiolactone ring Cys8-Leu12 (Cys side chain to C-terminal carboxyl)) [Se AIP-II] please.
A. 8.45

Q. Request the reported Max Activation (agr-GFP reporter, ΔagrD strain) associated with ASVCAAYF (not fully specified; thiolactone ring Cys4-Phe8 (Cys side chain to C-terminal carboxyl)) [Se AIP-I D1AS6A]
A. 12.4

Q. Which value of Max Activation (agr-GFP reporter, ΔagrD strain) has been reported for GVNACSSLF (not fully specified; thiolactone ring Cys5-Phe9 (Cys side chain to C-terminal carboxyl)) [Sa AIP-II] in the records?
A. 12

Q. What value of measured Max Activation (agr-GFP reporter, ΔagrD strain) is listed for NAAKYNPCASYL (bridge 8-C) [Se AIP-III] ?
A. 8.73

Where do these numbers come from? They come from patent US12116424.
